MEASURED_TARGET: Rat IR (rat, UniProt P15127 27-1383)
Sequence (P15127 27-1383): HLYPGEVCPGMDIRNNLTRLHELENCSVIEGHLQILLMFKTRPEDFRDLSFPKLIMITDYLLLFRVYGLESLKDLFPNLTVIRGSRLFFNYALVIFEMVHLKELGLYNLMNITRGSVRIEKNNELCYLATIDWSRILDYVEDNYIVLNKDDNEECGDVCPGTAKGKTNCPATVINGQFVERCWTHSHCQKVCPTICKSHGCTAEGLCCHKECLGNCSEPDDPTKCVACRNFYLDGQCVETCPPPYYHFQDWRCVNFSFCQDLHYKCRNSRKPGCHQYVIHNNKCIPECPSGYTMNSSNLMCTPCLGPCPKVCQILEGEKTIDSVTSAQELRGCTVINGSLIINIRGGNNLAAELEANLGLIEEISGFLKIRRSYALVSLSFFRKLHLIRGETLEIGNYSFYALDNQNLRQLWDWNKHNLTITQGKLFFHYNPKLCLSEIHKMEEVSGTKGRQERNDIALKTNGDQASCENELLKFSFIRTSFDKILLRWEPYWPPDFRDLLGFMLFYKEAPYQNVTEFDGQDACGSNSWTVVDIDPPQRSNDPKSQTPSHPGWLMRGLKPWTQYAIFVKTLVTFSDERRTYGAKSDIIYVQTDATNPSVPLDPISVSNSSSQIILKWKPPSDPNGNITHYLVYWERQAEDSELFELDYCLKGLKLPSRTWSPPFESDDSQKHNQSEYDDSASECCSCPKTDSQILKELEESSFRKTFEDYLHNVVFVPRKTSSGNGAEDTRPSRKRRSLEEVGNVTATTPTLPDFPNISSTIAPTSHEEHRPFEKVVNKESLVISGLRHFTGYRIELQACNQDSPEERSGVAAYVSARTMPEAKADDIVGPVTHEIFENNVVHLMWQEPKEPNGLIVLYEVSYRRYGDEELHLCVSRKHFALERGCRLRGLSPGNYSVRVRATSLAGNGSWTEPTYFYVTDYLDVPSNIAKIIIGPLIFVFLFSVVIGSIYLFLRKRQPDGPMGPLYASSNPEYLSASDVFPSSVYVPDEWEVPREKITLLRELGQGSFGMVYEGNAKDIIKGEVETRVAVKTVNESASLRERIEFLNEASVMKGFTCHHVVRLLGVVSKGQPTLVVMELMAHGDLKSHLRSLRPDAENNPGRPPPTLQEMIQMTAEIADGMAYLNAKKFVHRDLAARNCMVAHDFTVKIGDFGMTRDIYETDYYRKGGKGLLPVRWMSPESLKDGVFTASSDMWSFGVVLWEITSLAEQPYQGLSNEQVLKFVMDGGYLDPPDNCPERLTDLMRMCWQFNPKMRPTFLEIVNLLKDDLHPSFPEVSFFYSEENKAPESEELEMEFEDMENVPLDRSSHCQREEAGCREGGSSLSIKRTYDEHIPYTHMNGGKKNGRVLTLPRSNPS
EXPERIMENTAL_DETAILS: cell-based or functional assay
REPORTED_ENDPOINT: Rat IR phosphorylation [EC50 nM] mean (nM)
Answers are plain numbers, in nM.

[in] Please look up its Rat IR phosphorylation [EC50 nM] mean: scl-Fc fusion protein INS009 (Fc fusion) SFVNQHLCGSHLVEALELVCGERGFHYTPKTGSYPGGVGIVEQCCTSICSLEQLENYCGGEAEDLQVGQVELGGGPGAGSLQPEGSLQGGPSVFLFPPKPKDTLMISRTPEVTCVVVDVSHEDPEVKFNWYVDGVEVHNAKTKPREEQYNSTYRVVSVLTVLHQDWLNGKEYKCKVSNKALPAPIEKTISKAKGQPREPQVYTLPPSRDELTKNQVSLTCLVKGFYPSDIAVEWESNGQPENNYKTTPPVLDSDGSFFLYSKLTVDKSRWQQGNVFSCSVMHEALHNHYTQKSLSLSPGGGGGSAESKYGPPCPPCPA
[out] 137
